Each recorded value in this set is attributed to ChEMBL document CHEMBL1681708.

- procedureDetails: AUC (0 to 6 hrs) in rat at 10 mg/kg, po administered with methylcellulose
- Assay type: ADME, organism-based
- Design: time < 6 hr, dose 10 mg/kg, route oral
- testConditions: in vivo
endpoint: AUC(0-t) at 6 h

- compound: "CC(C)S(=O)(=O)N1CCN(c2cnn(-c3cccc(Cl)c3)c(=O)c2OC2CCCC2)CC1"
  valueObserved: "490 ng·h/mL"
- compound: "CC(C)S(=O)(=O)N1CCN(c2cnn(-c3ccccc3)c(=O)c2OC2CCCC2)CC1"
  valueObserved: "1600 ng·h/mL"
- compound: "CC(C)S(=O)(=O)N1CCN(c2cnn(-c3cc(F)cc(F)c3)c(=O)c2OC2CCC(F)(F)C2)CC1 (stereo not drawn)"
  valueObserved: "440 ng·h/mL"
- compound: "CC(C)S(=O)(=O)N1CCN(c2cnn(-c3cc(F)cc(Cl)c3)c(=O)c2OC2CCCC2)CC1"
  valueObserved: "490 ng·h/mL"
- compound: "CC(C)S(=O)(=O)N1CCN(c2cnn(-c3cccc(F)c3)c(=O)c2OC2CCCC2)CC1"
  valueObserved: "670 ng·h/mL"
- compound: "CC(C)S(=O)(=O)N1CCN(c2cnn(-c3cccc(F)c3)c(=O)c2OC2CCC(F)(F)C2)CC1 (stereo not drawn)"
  valueObserved: "470 ng·h/mL"
- compound: "CC(C)S(=O)(=O)N1CCN(c2cnn(-c3cc(F)cc(F)c3)c(=O)c2OC2CCC(F)C2)CC1 (racemic)"
  valueObserved: "2100 ng·h/mL"
- compound: "CC(C)S(=O)(=O)N1CCN(c2cnn(-c3cccc(F)c3)c(=O)c2OC2CCC(F)C2)CC1 (racemic)"
  valueObserved: "300 ng·h/mL"
